B1: CPEB3 Ribozyme (parent)
chain: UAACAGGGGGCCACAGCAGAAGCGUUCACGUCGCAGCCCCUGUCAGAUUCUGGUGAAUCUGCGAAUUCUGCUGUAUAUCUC

variants of: B1; experiment: self-cleavage, relative activity (ratio to wild type); higher = more cleavage; in vitro, sequencing
self-cleavage class ranges: Low = under 0.3, Medium = from 0.3 up to 0.5, High = 0.5 and over

- variant-designation: "A15G G55U"
  label: "High"
- variant-designation: "U41A G73C"
  label: "Low"
- variant-designation: "C11U U60C"
  label: "Low"
- variant-designation: "U69A U76A"
  label: "High"
- variant-designation: "C4U A20C"
  label: "Low"
- variant-designation: "G9A A57G"
  label: "Low"
- variant-designation: "U49C U60C"
  label: "Low"
- variant-designation: "A15G C62U"
  label: "Low"
- variant-designation: "G9C A21U"
  label: "Low"
- variant-designation: "C11A A35U"
  label: "Low"
- variant-designation: "A45G U54C"
  label: "High"
- variant-designation: "U60C U67C"
  label: "Medium"
- variant-designation: "U49G A56G"
  label: "Medium"
- variant-designation: "A75U"
  label: "High"
- variant-designation: "C12A U72C"
  label: "High"
- variant-designation: "A65G G70A"
  label: "Medium"
- variant-designation: "C23G A35U"
  label: "Low"
- variant-designation: "U72C"
  label: "High"
- variant-designation: "U26A U67A"
  label: "Medium"
- variant-designation: "U43C C68G"
  label: "Low"
- variant-designation: "G36A C44G"
  label: "Low"
- variant-designation: "A18G C37A"
  label: "Medium"
- variant-designation: "A28U C40U"
  label: "High"
- variant-designation: "G19A C40U"
  label: "Low"
- variant-designation: "G19A U31A"
  label: "Medium"
- variant-designation: "A2U A57G"
  label: "High"
- variant-designation: "A3U A13U"
  label: "High"
- variant-designation: "U43C C44U"
  label: "Medium"
- variant-designation: "A28G U41C"
  label: "High"
- variant-designation: "G24C A28G"
  label: "Medium"
- variant-designation: "U1C A13G"
  label: "High"
- variant-designation: "A56U C59G"
  label: "Low"
- variant-designation: "U43G A56U"
  label: "Medium"
- variant-designation: "A13U A47G"
  label: "High"
- variant-designation: "A13G U76A"
  label: "High"
- variant-designation: "A3G G36U"
  label: "Low"
- variant-designation: "C23A C39U"
  label: "Low"
- variant-designation: "C29U A45G"
  label: "Medium"
- variant-designation: "A56G U67A"
  label: "Medium"
- variant-designation: "U43C U74G"
  label: "High"
- variant-designation: "A21C U69A"
  label: "Low"
- variant-designation: "G46A U67C"
  label: "Low"
- variant-designation: "A20U"
  label: "Medium"
- variant-designation: "A35G C39G"
  label: "High"
- variant-designation: "U41G U72C"
  label: "Medium"
- variant-designation: "G24A A77G"
  label: "Low"
- variant-designation: "C34A U74G"
  label: "Low"
- variant-designation: "A45G U58A"
  label: "Medium"
- variant-designation: "A2U A28G"
  label: "High"
- variant-designation: "G10U A45C"
  label: "Low"
- variant-designation: "A20U C29U"
  label: "Low"
- variant-designation: "U66G A75U"
  label: "High"
- variant-designation: "C23U C29U"
  label: "Low"
- variant-designation: "G30C"
  label: "Low"
- variant-designation: "C32U U74C"
  label: "Medium"
- variant-designation: "A5G G63A"
  label: "High"
- variant-designation: "A18U A47G"
  label: "Medium"
- variant-designation: "A21G A28U"
  label: "Medium"
- variant-designation: "U43A G73A"
  label: "High"
- variant-designation: "A18G C81A"
  label: "High"
- variant-designation: "G36C U72G"
  label: "Low"
- variant-designation: "A18U G55A"
  label: "Low"
- variant-designation: "G16U U69C"
  label: "Low"
- variant-designation: "A20G C37G"
  label: "High"
- variant-designation: "A5U C32G"
  label: "Low"
- variant-designation: "U48A U66G"
  label: "Medium"
- variant-designation: "G10U A77U"
  label: "Low"
- variant-designation: "C62U U66A"
  label: "Low"
- variant-designation: "U66C U78C"
  label: "Medium"
- variant-designation: "A2G U78A"
  label: "High"
- variant-designation: "U25C A75U"
  label: "Medium"
- variant-designation: "A15C U66G"
  label: "Medium"
- variant-designation: "G53A U67C"
  label: "Medium"
- variant-designation: "U48A U76C"
  label: "High"
- variant-designation: "G8U U60C"
  label: "Low"
- variant-designation: "U41A U58G"
  label: "Low"
- variant-designation: "A21G U49C"
  label: "Low"
- variant-designation: "A21U A28C"
  label: "Low"
- variant-designation: "U67G A75U"
  label: "High"

From: the RNAGym collection of RNA variant scans (doi:10.1093/nar/gkz1192)
